Kindly state remaining binding at 1 µM for each of the entries shown.
tested-on: KIT(V559D,T670I) (Homo sapiens, UniProt P10721, T670I/V559D)
Construct: purchased Eurofins DiscoverX KINOMEscan (scanTK)
Sequence (P10721 26-976 V559D/T670I): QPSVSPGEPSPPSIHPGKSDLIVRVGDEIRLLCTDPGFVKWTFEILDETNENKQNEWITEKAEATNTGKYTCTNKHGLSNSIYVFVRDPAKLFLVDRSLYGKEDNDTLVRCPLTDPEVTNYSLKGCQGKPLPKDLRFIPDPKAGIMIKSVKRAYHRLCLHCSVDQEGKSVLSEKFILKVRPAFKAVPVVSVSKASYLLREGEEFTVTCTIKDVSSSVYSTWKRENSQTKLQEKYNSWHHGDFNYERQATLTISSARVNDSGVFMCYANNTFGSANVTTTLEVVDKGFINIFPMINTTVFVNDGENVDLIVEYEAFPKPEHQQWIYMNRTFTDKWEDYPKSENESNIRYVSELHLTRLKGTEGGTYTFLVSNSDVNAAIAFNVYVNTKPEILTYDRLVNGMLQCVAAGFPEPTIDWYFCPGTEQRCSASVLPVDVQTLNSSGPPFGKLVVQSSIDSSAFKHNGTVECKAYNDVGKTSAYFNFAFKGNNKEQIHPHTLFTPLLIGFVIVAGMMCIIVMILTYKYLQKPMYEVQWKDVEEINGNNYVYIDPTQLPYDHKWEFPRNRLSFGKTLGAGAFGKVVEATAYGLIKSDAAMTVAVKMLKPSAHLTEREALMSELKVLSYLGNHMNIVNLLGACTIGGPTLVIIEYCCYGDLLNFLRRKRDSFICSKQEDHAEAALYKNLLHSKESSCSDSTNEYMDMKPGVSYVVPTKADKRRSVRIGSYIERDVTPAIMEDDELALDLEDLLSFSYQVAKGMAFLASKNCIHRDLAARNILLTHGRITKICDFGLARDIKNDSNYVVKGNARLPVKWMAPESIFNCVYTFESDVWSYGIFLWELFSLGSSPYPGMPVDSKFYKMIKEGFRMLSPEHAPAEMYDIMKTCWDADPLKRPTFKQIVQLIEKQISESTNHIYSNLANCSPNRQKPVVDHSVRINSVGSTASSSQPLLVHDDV
protocol-notes: KINOMEscan ScanTK
Format: binding
cond: @1000nM, read-out: %Control
Report only the number, with the unit % understood.

Quick check: remaining binding at 1 µM of Cc1cnc(S(C)(=O)=O)nc1N1CCCC(n2nc(-c3ccc(Oc4ccccc4)cc3)c3c(N)ncnc32)C1 (centres unmarked) ?
68

Quick check: remaining binding at 1 µM of CCOC(=O)c1cnc(S(C)(=O)=O)nc1N1CCC[C@@H](n2nc(-c3ccc(Oc4ccccc4)cc3)c3c(N)ncnc32)C1 ?
34

Quick check: remaining binding at 1 µM of C=CC(=O)N1CCC[C@@H](n2nc(-c3ccc(Oc4ccccc4)cc3)c3c(N)ncnc32)C1 [Compound 1g, Ibrutinib, reference compound] ?
68

Quick check: remaining binding at 1 µM of CNC(=O)c1cnc(S(C)(=O)=O)nc1N1CCCC(n2nc(-c3ccc(Oc4ccccc4)cc3)c3c(N)ncnc32)C1 (centres unmarked) ?
79

Quick check: remaining binding at 1 µM of COC(=O)c1cnc(S(C)(=O)=O)nc1N1CCCC(n2nc(-c3ccc(Oc4ccccc4)cc3)c3c(N)ncnc32)C1 (centres unmarked) ?
92

====

Kindly state difference in %Control versus Ib at 1 µM for each of the entries shown.
tested-on: KIT(L576P) (Homo sapiens, UniProt P10721, L576P)
Construct: purchased Eurofins DiscoverX KINOMEscan (scanTK)
Sequence (P10721 26-976 L576P): as the sequence (P10721 26-976 V559D/T670I) above, with D534V, L551P, I645T counted along it
protocol-notes: KINOMEscan ScanTK
Type: binding
cond: @1000nM, read-out: % difference (compound - Ib %Control)
Report only the number, with the unit % understood.

Quick check: difference in %Control versus Ib at 1 µM of COC(=O)c1cnc(S(C)(=O)=O)nc1N1CCCC(n2nc(-c3ccc(Oc4ccccc4)cc3)c3c(N)ncnc32)C1 (stereo not shown) ?
24

Quick check: difference in %Control versus Ib at 1 µM of CCOC(=O)c1cnc(S(C)(=O)=O)nc1N1CCC[C@@H](n2nc(-c3ccc(Oc4ccccc4)cc3)c3c(N)ncnc32)C1 ?
32

Quick check: difference in %Control versus Ib at 1 µM of CNC(=O)c1cnc(S(C)(=O)=O)nc1N1CCCC(n2nc(-c3ccc(Oc4ccccc4)cc3)c3c(N)ncnc32)C1 (stereo not shown) ?
13

Quick check: difference in %Control versus Ib at 1 µM of Cc1cnc(S(C)(=O)=O)nc1N1CCCC(n2nc(-c3ccc(Oc4ccccc4)cc3)c3c(N)ncnc32)C1 (stereo not shown) ?
12

====

tested-on: ABL1(M351T)-phosphorylated (Homo sapiens, UniProt P00519, M351T)
Construct: purchased Eurofins DiscoverX KINOMEscan (scanTK)
protocol-notes: KINOMEscan ScanTK
Type: binding
cond: read-out: %Control @1000nM
endpoint: remaining binding at 1 µM

# get_value(readout= remaining binding at 1 µM, system= ABL1(M351T)-phosphorylated (Homo sapiens, UniProt P00519, M351T)) for CNC(=O)c1cnc(S(C)(=O)=O)nc1N1CCCC(n2nc(-c3ccc(Oc4ccccc4)cc3)c3c(N)ncnc32)C1 (stereo not shown)
74%

# get_value(readout= remaining binding at 1 µM, system= ABL1(M351T)-phosphorylated (Homo sapiens, UniProt P00519, M351T)) for Cc1cnc(S(C)(=O)=O)nc1N1CCCC(n2nc(-c3ccc(Oc4ccccc4)cc3)c3c(N)ncnc32)C1 (stereo not shown)
65%

# get_value(readout= remaining binding at 1 µM, system= ABL1(M351T)-phosphorylated (Homo sapiens, UniProt P00519, M351T)) for COC(=O)c1cnc(S(C)(=O)=O)nc1N1CCCC(n2nc(-c3ccc(Oc4ccccc4)cc3)c3c(N)ncnc32)C1 (stereo not shown)
66%

# get_value(readout= remaining binding at 1 µM, system= ABL1(M351T)-phosphorylated (Homo sapiens, UniProt P00519, M351T)) for CCOC(=O)c1cnc(S(C)(=O)=O)nc1N1CCC[C@@H](n2nc(-c3ccc(Oc4ccccc4)cc3)c3c(N)ncnc32)C1
77%

====

Kindly state difference in %Control from compound Ib at 1 µM for each of the entries shown.
tested-on: EPHA5 (Homo sapiens)
Construct: purchased Eurofins DiscoverX KINOMEscan (scanTK)
Sequence (P54756 25-1037): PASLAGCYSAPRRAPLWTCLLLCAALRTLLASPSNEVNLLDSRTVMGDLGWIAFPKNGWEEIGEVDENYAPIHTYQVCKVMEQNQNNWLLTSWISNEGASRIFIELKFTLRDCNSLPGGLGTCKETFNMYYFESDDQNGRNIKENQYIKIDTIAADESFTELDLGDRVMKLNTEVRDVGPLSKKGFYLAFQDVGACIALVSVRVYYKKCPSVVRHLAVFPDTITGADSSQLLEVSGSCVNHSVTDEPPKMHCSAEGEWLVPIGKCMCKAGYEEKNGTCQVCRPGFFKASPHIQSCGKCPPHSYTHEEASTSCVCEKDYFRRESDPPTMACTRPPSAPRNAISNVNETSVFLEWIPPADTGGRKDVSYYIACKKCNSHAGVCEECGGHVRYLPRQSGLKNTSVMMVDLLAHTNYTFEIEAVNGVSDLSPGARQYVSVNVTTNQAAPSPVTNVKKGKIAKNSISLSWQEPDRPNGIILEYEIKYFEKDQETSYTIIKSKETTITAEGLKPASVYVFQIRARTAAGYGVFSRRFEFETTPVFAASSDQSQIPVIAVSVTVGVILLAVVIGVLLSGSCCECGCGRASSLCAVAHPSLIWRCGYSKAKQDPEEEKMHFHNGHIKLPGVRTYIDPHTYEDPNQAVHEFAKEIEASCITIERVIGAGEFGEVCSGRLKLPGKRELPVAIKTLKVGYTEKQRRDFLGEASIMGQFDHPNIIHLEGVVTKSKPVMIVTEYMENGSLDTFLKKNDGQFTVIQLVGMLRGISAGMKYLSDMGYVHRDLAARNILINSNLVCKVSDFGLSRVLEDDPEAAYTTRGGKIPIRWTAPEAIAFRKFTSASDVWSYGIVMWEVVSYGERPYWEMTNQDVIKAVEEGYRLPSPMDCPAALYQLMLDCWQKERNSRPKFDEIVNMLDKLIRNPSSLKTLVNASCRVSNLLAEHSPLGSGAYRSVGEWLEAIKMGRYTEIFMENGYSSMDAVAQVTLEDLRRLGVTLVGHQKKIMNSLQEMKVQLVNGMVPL
protocol-notes: KINOMEscan ScanTK
Type: binding
cond: @1000nM
Report only the number, with the unit % understood.

Quick check: difference in %Control from compound Ib at 1 µM of COC(=O)c1cnc(S(C)(=O)=O)nc1N1CCCC(n2nc(-c3ccc(Oc4ccccc4)cc3)c3c(N)ncnc32)C1 (stereo not shown) ?
4

Quick check: difference in %Control from compound Ib at 1 µM of CNC(=O)c1cnc(S(C)(=O)=O)nc1N1CCCC(n2nc(-c3ccc(Oc4ccccc4)cc3)c3c(N)ncnc32)C1 (stereo not shown) ?
4

Quick check: difference in %Control from compound Ib at 1 µM of CCOC(=O)c1cnc(S(C)(=O)=O)nc1N1CCC[C@@H](n2nc(-c3ccc(Oc4ccccc4)cc3)c3c(N)ncnc32)C1 ?
4

Quick check: difference in %Control from compound Ib at 1 µM of Cc1cnc(S(C)(=O)=O)nc1N1CCCC(n2nc(-c3ccc(Oc4ccccc4)cc3)c3c(N)ncnc32)C1 (stereo not shown) ?
-1

====

tested-on: HCK (Homo sapiens)
Construct: purchased Eurofins DiscoverX KINOMEscan (scanTK)
Sequence (P08631 whole entry): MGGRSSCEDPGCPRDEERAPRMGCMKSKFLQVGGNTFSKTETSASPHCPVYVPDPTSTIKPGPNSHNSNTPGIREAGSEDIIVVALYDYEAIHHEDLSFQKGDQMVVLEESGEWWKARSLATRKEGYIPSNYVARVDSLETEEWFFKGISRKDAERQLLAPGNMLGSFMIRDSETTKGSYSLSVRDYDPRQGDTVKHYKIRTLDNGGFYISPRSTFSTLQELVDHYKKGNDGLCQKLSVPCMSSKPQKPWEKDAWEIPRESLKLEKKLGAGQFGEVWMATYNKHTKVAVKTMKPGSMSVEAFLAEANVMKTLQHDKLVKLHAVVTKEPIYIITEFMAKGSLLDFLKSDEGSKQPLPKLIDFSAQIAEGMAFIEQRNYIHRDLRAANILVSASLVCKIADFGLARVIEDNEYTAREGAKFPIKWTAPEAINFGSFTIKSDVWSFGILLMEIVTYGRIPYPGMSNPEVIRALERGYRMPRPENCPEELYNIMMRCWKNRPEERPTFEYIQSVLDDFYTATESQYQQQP
protocol-notes: KINOMEscan ScanTK
Assay type: binding
cond: read-out: %Control @1000nM
Kindly state remaining binding at 1 µM for each of the entries shown.
Report only the number, with the unit % understood.

Quick check: remaining binding at 1 µM of CCOC(=O)c1cnc(S(C)(=O)=O)nc1N1CCC[C@@H](n2nc(-c3ccc(Oc4ccccc4)cc3)c3c(N)ncnc32)C1 [Compound 8c] ?
28

Quick check: remaining binding at 1 µM of COC(=O)c1cnc(S(C)(=O)=O)nc1N1CCCC(n2nc(-c3ccc(Oc4ccccc4)cc3)c3c(N)ncnc32)C1 (centres unmarked) [Compound 8b] ?
16

Quick check: remaining binding at 1 µM of C=CC(=O)N1CCC[C@@H](n2nc(-c3ccc(Oc4ccccc4)cc3)c3c(N)ncnc32)C1 [Compound 1g, Ibrutinib, reference compound] ?
5.2

Quick check: remaining binding at 1 µM of Cc1cnc(S(C)(=O)=O)nc1N1CCCC(n2nc(-c3ccc(Oc4ccccc4)cc3)c3c(N)ncnc32)C1 (centres unmarked) [Compound 8a] ?
6.5

Quick check: remaining binding at 1 µM of CNC(=O)c1cnc(S(C)(=O)=O)nc1N1CCCC(n2nc(-c3ccc(Oc4ccccc4)cc3)c3c(N)ncnc32)C1 (centres unmarked) [Compound 8d] ?
12

====

tested-on: ABL1-nonphosphorylated (Homo sapiens, UniProt P00519)
Construct: purchased Eurofins DiscoverX KINOMEscan (scanTK)
protocol-notes: KINOMEscan ScanTK
Assay type: binding
cond: @1000nM
endpoint: difference in %Control from reference compound Ib at 1 µM (%)
Report only the number, with the unit % understood.

Quick check: difference in %Control from reference compound Ib at 1 µM of CCOC(=O)c1cnc(S(C)(=O)=O)nc1N1CCC[C@@H](n2nc(-c3ccc(Oc4ccccc4)cc3)c3c(N)ncnc32)C1 ?
36.5

Quick check: difference in %Control from reference compound Ib at 1 µM of COC(=O)c1cnc(S(C)(=O)=O)nc1N1CCCC(n2nc(-c3ccc(Oc4ccccc4)cc3)c3c(N)ncnc32)C1 (stereo not shown) ?
56.5

Quick check: difference in %Control from reference compound Ib at 1 µM of Cc1cnc(S(C)(=O)=O)nc1N1CCCC(n2nc(-c3ccc(Oc4ccccc4)cc3)c3c(N)ncnc32)C1 (stereo not shown) ?
38.5

Quick check: difference in %Control from reference compound Ib at 1 µM of CNC(=O)c1cnc(S(C)(=O)=O)nc1N1CCCC(n2nc(-c3ccc(Oc4ccccc4)cc3)c3c(N)ncnc32)C1 (stereo not shown) ?
24.5

====

tested-on: KIT(V559D,V654A) (Homo sapiens, UniProt P10721, V559D/V654A)
Construct: purchased Eurofins DiscoverX KINOMEscan (scanTK)
Sequence (P10721 26-976 V559D/V654A): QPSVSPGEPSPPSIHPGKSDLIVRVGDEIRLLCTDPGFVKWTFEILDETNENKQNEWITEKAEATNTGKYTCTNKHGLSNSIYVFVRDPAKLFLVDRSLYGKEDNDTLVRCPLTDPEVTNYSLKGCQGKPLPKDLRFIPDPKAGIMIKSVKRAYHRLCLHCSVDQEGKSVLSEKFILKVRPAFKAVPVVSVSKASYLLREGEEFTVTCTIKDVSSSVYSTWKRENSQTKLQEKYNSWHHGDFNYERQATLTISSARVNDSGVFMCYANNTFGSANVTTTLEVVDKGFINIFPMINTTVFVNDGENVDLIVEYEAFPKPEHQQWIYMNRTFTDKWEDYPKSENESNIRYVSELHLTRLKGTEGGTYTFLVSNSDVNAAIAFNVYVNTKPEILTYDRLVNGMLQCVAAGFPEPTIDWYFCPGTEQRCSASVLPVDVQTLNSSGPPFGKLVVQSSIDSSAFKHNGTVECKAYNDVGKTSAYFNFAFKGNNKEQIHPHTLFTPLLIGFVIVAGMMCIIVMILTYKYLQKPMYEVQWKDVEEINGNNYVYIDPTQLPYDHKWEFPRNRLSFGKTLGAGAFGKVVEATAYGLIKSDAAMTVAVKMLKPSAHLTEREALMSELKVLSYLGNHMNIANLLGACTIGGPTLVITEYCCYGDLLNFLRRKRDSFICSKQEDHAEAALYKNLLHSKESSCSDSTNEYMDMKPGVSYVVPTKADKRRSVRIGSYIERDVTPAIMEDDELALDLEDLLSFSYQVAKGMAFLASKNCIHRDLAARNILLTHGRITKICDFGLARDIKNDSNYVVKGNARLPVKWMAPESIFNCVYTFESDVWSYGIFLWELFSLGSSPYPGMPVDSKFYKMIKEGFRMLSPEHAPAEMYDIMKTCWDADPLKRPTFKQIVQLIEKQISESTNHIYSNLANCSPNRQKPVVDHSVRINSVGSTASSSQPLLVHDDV
protocol-notes: KINOMEscan ScanTK
Format: binding
cond: read-out: %Control @1000nM
endpoint: remaining binding at 1 µM (%)
Report only the number, with the unit % understood.

# get_value(readout= remaining binding at 1 µM, system= KIT(V559D,V654A) (Homo sapiens, UniProt P10721, V559D/V654A)) for CCOC(=O)c1cnc(S(C)(=O)=O)nc1N1CCC[C@@H](n2nc(-c3ccc(Oc4ccccc4)cc3)c3c(N)ncnc32)C1
97

# get_value(readout= remaining binding at 1 µM, system= KIT(V559D,V654A) (Homo sapiens, UniProt P10721, V559D/V654A)) for CNC(=O)c1cnc(S(C)(=O)=O)nc1N1CCCC(n2nc(-c3ccc(Oc4ccccc4)cc3)c3c(N)ncnc32)C1 (stereo not shown)
94

# get_value(readout= remaining binding at 1 µM, system= KIT(V559D,V654A) (Homo sapiens, UniProt P10721, V559D/V654A)) for COC(=O)c1cnc(S(C)(=O)=O)nc1N1CCCC(n2nc(-c3ccc(Oc4ccccc4)cc3)c3c(N)ncnc32)C1 (stereo not shown)
86

# get_value(readout= remaining binding at 1 µM, system= KIT(V559D,V654A) (Homo sapiens, UniProt P10721, V559D/V654A)) for Cc1cnc(S(C)(=O)=O)nc1N1CCCC(n2nc(-c3ccc(Oc4ccccc4)cc3)c3c(N)ncnc32)C1 (stereo not shown)
90
